# Measurement Target: M3 muscarinic receptor (Homo sapiens)
# Sequence (P20309 whole entry): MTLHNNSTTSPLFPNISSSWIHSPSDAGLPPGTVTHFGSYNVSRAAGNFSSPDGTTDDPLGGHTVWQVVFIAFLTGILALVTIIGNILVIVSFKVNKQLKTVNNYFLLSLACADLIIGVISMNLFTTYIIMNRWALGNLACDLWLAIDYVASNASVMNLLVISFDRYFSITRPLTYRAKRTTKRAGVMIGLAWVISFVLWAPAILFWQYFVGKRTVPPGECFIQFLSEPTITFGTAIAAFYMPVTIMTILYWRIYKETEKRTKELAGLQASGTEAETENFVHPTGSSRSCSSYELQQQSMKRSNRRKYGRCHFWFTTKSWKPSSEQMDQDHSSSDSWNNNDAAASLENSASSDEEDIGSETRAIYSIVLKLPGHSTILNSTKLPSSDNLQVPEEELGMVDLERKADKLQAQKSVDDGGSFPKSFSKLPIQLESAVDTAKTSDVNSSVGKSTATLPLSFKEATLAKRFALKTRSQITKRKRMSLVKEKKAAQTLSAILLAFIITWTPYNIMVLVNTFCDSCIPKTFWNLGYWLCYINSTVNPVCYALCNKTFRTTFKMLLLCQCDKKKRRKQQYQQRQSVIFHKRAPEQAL
# Assay Details: [3H]NMS competition binding, M3 CHO membranes
# Set-up: host or cells: CHO cells, stably transfected
# Experimental Parameters: Inhibition constants (KI) as negative logarithms, M3, low site
Observation Type: pKi
pKi here is simply -log10 of the concentration when that concentration is written in mol/L.

Return pKi measured with M3 muscarinic receptor (Homo sapiens) given this compound: O=C1CCCN1CC#CCN1CCCC1 [oxotremorine, reference compound]
6.35

====

# Measurement Target: UniProtKB P08173
# Sequence (P08173 whole entry): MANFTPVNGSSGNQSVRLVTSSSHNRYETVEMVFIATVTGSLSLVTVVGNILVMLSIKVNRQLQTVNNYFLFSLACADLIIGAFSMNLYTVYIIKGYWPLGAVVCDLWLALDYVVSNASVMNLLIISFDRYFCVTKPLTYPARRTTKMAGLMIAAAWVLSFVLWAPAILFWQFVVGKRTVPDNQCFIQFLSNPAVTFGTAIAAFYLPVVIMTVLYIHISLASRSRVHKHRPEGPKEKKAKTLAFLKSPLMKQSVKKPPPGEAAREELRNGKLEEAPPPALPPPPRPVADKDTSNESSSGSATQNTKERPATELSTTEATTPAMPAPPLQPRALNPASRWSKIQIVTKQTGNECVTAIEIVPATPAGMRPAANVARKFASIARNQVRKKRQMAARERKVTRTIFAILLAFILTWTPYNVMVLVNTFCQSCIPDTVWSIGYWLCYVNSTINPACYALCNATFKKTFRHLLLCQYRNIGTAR
# Assay Details: accumulation of IPX, M4 CHO cells (M4Gq)
# Type: cell-based
# Parameters: host or cells: CHO cells, stably transfected
Observation Type: EC50 (nM)
// note: answer is a bare numeric in nM

Recorded EC50 of O=C1CCCN1CC#CCN1CCCC1 [oxotremorine, reference compound] , please.
162
